# target.entity: human PTPN1 (1-435) (Homo sapiens (Human), UniProt P18031)
# Sequence (P18031 whole entry): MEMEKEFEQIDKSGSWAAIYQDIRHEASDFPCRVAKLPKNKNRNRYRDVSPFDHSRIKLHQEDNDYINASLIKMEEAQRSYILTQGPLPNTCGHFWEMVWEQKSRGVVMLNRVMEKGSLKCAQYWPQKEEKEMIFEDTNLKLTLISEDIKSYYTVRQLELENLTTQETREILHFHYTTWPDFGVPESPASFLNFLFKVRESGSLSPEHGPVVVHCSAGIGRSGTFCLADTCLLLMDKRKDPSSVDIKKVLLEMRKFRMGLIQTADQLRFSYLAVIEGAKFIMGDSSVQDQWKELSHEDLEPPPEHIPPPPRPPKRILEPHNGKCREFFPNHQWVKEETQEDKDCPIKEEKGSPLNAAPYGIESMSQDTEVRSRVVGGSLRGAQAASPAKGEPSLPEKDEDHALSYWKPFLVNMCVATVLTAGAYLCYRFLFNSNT
# test.protocol: Human PTPN1 Biochemical Assay
# settings: DiFMUP substrate, read-out: PTP1B IC50
# Description: Human PTPN1 Biochemical Assay Test compounds were dissolved in DMSO, and 10-point serial 3-fold dilution series in DMSO were prepared in Echo Qualified 384-well Polypropylene Microplates (Labcyte, San Jose, CA) (top concentration 50 µM). […] For detection, assay plates were read on SpectraMax Microplate Reader (Molecular Devices), with Excitation wavelength=360 nm and Emission wavelength=460 nm. […] Calculated % effects were fit using a 4-parameter algorithm, and EC50 was reported.
pIC50: −log10 of the molar value.
Label y when pIC50 is at or above 6; otherwise label n.

molecule: O=C(Nc1ccccc1-c1ccccc1)c1ccc2sc(C(F)(F)P(=O)(O)O)c(Br)c2c1
group: n

molecule: O=P(O)(O)C(F)(F)c1sc2c(OCC3CC3(F)F)cc(-c3cnn[nH]3)cc2c1Br (centres unmarked)
group: y

molecule: O=C(NCC1CNC1)c1ccc2sc(C(F)(F)P(=O)(O)O)c(Br)c2c1
group: n

Does the reported pIC50 for NC(=O)c1cc(OCc2ccc(-c3cccnc3)cc2)c2sc(C(F)(F)P(=O)(O)O)c(Br)c2c1 fall at or above the 6 mark?
y

Does the reported pIC50 for O=C1NC[C@H](CNC(=O)c2ccc3sc(C(F)(F)P(=O)(O)O)c(Br)c3c2)N1 fall at or above the 6 mark?
n

Does the reported pIC50 for O=C(NC(c1cccnc1)C(F)(F)F)c1ccc2sc(C(F)(F)P(=O)(O)O)c(Br)c2c1 (single isomer, unassigned) [Compound 222a] fall at or above the 6 mark?
n

Does the reported pIC50 for CC1CCS(=O)(=O)C1CCOc1cc(C(N)=O)cc2c(Br)c(C(F)(F)P(=O)(O)O)sc12 (single isomer, unassigned) [Compound 395] fall at or above the 6 mark?
y

Does the reported pIC50 for O=C(NCc1ccon1)c1ccc2sc(C(F)(F)P(=O)(O)O)c(Br)c2c1 fall at or above the 6 mark?
n

Does the reported pIC50 for NC(=O)c1cc(OCCCCC(F)(F)F)c2sc(C(F)(F)P(=O)(O)O)c(Br)c2c1 fall at or above the 6 mark?
y

Does the reported pIC50 for NC(=O)c1cc(OCC2CC3(CCC3)C2)c2sc(C(F)(F)P(=O)(O)O)c(Br)c2c1 fall at or above the 6 mark?
y

Does the reported pIC50 for CS(=N)(=O)Cc1cc(OCCCC(F)(F)F)c2sc(C(F)(F)P(=O)(O)O)c(Br)c2c1 (centres unmarked) [Compound 412] fall at or above the 6 mark?
y

Does the reported pIC50 for NC(=O)c1cc(OCCC2CCCS2(=O)=O)c2sc(C(F)(F)P(=O)(O)O)c(Br)c2c1 (centres unmarked) [Compound 264] fall at or above the 6 mark?
y

Does the reported pIC50 for NC(=O)c1ccc2c(Br)c(C(F)(F)P(=O)(O)O)sc2c1 fall at or above the 6 mark?
n
